Items are presented alongside their recorded TGI.
tested on: SK-MEL-28 melanoma; test: NCI tumour cell line growth inhibition, 48 h

These recorded examples may help you get a feel for the data.
[[record]]
molecule = "COc1ccccc1C12OC(=O)C1(C)Oc1ccccc1C2=O (stereo unspecified)"
reported = "> 100 µM"

[[record]]
molecule = "CCOC(=O)N1CCC2(CC1)C[C@](C)(C(C)=O)C(C)O2 (stereo partly specified)"
reported = "> 100 µM"


Entry COc1ccc(CNc2nc(NCc3ccc(OC)c(OC)c3)nc(NC3CCCCC3)n2)cc1 : reported TGI = ? > 100 µM

Entry CN(C)CC[N+]1=Nc2cccc3cccc(c23)N1 : reported TGI = ? > 100 µM

Entry CCCCCCCCCCCCCCCCCC(CCCCCCCCCCCCCCCCC)OP(=O)(O)O : reported TGI = ? > 100 µM

Entry O=[N+]([O-])C(=C1NCCN1)/C(Cl)=C(\Cl)Br : reported TGI = ? > 77.7 µM

// data source = PubChem BioAssay (NCI)
